# EC50 per record follows
Biological target: T1, Placenta Growth Factor (PlGF), human (human, UniProt P49763 21-149)
T1 chain: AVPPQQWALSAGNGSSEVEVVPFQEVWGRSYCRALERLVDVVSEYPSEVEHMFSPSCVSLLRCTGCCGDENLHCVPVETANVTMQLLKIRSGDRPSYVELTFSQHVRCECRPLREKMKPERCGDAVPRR
Test: ELISA
outcome.measure: EC50 (nM)

binder="HC 4/SLC 8 (antibody) chain 1: GQGTLVTVSSASTKQPVLHQPPAMSSALGTTIRLTCTLRNDHDIGVYSVYWYQQRPGHPPRFLLRYFSQSDKSQGPQVPPRFSGSKDVARNRGYLSISELQPEDEAMYYCAMGARSRCWPRGFQSKHNSVTHVFGSGTQLTVLSQPKATPSVTLFPPSSEELQANKATLVCLMNDFYPGILTVTWKADGTPITQGVEMTTPSKQSNNKYAASSYLSLTPEQWRSRRSYSCQVMHEGSTVEKTVAPAECS chain 2: MSWAPVLLMLFVYCTGCGPQPVLHQPPAMSSALGTTIRLTCTLRNDHDIGVYSVYWYQQRPGHPPRFLLRYFSQSDKSQGPQVPPRFSGSKDVARNRGYLSISVTHVFGSGTQLTVLSQPKATPSQVQLVQ" measurement_unit=nM reading=0.18
binder="HC 10/SLC 6 (antibody) chain 1: GQGTLVTVSSASTKGPSVFPQPVLHQPPAMSSALGTTIRLTCTLRNDHDIGVYSVYWYQQRPGHPPRFLLRYFSQSDKSQGPQVPPRFSGSKDVARNRGYLSISELQPEDEAMYYCAMGARSRCWPRGFQSKHNSVTHVFGSGTQLTVLSQPKATPSVTLFPPSSEELQANKATLVCLMNDFYPGILTVTWKADGTPITQGVEMTTPSKQSNNKYAASSYLSLTPEQWRSRRSYSCQVMHEGSTVEKTVAPAECS chain 2: MSWAPVLLMLFVYCTGCGPQPVLHQPPAMSSALGTTIRLTCTLRNDHDIGVYSVYWYQQRPGHPPRFLLRYFSQSDKSQGPQVPPRFSGSKDVARNRGYLSISVTHVFGSGTQLTVLSQPKATQVQLVQ" measurement_unit=nM reading=0.089
binder="HC 8/SLC 6 (antibody) chain 1: GQGTLVTVSSASTKGPSVQPVLHQPPAMSSALGTTIRLTCTLRNDHDIGVYSVYWYQQRPGHPPRFLLRYFSQSDKSQGPQVPPRFSGSKDVARNRGYLSISELQPEDEAMYYCAMGARSRCWPRGFQSKHNSVTHVFGSGTQLTVLSQPKATPSVTLFPPSSEELQANKATLVCLMNDFYPGILTVTWKADGTPITQGVEMTTPSKQSNNKYAASSYLSLTPEQWRSRRSYSCQVMHEGSTVEKTVAPAECS chain 2: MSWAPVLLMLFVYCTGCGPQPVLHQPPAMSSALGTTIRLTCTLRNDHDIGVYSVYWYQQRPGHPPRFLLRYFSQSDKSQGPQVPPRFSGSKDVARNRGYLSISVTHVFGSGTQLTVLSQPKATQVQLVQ" measurement_unit=nM reading=0.128
binder="HC 6/SLC 7 (antibody) chain 1: GQGTLVTVSSASTKGPQPVLHQPPAMSSALGTTIRLTCTLRNDHDIGVYSVYWYQQRPGHPPRFLLRYFSQSDKSQGPQVPPRFSGSKDVARNRGYLSISELQPEDEAMYYCAMGARSRCWPRGFQSKHNSVTHVFGSGTQLTVLSQPKATPSVTLFPPSSEELQANKATLVCLMNDFYPGILTVTWKADGTPITQGVEMTTPSKQSNNKYAASSYLSLTPEQWRSRRSYSCQVMHEGSTVEKTVAPAECS chain 2: MSWAPVLLMLFVYCTGCGPQPVLHQPPAMSSALGTTIRLTCTLRNDHDIGVYSVYWYQQRPGHPPRFLLRYFSQSDKSQGPQVPPRFSGSKDVARNRGYLSISVTHVFGSGTQLTVLSQPKATPQVQLVQ" measurement_unit=nM reading=0.083
